Known melting point of a selection of compounds
Respond with the bare value in °C.

- COMPOUND: "Clc1c(-c2ccc(Oc3ccccc3)cc2)ccn2c(CC3CC3)nnc12 [Co. No. 8]"
  MEASUREMENT UNITS: "°C"
  melting point: 156.7

Entry Cc1ccc(Oc2ccc(-c3ccn4c(CC(F)(F)F)nnc4c3Cl)cc2F)c(C)n1 [Co. No. 3] needs its melting point filled in; supply it. 164.5

====

# TEST TARGET: human mGluR2 receptor (Homo sapiens)
# Construct: expressed in transfected cells; host or cells: CHO cells (membranes)
# PROCEDURE TEXT: [35S]GTPγS binding assay (PAM)
# Type: biochemical
# DETAILS: in presence of glutamate at predetermined EC20; membranes from CHO cells transfected with human mGluR2; read-out: GTPγS -hR2 PAM pEC50 (converted)
QUANTITY NAME: EC50 (µM)
Supply the numeric figure in µM, leaving out any unit text.

- COMPOUND STRUCTURE STRING: "Cc1cc(Oc2ccc(-c3ccn4c(CC5CC5)nnc4c3C(F)(F)F)cc2F)ccn1"
  EC50, µM: 0.0501

Check the records and state EC50 for `Fc1cc(-c2ccn3c(CC4CC4)nnc3c2C(F)(F)F)ccc1Oc1ccnc(C2CC2)c1` 0.0178

# return recorded EC50 for entry `O[C@H]1CC[C@H](Nc2ccc(-c3ccn4c(CC5CC5)nnc4c3Cl)cc2Cl)CC1` 0.0417

====

List of GTPγS -hR2 PAM pEC50 values.
# TEST TARGET: human mGluR2 receptor (Homo sapiens, UniProt Q14416)
# Construct: expressed in transfected cells; host or cells: CHO cells (membranes)
# Sequence (Q14416 19-872): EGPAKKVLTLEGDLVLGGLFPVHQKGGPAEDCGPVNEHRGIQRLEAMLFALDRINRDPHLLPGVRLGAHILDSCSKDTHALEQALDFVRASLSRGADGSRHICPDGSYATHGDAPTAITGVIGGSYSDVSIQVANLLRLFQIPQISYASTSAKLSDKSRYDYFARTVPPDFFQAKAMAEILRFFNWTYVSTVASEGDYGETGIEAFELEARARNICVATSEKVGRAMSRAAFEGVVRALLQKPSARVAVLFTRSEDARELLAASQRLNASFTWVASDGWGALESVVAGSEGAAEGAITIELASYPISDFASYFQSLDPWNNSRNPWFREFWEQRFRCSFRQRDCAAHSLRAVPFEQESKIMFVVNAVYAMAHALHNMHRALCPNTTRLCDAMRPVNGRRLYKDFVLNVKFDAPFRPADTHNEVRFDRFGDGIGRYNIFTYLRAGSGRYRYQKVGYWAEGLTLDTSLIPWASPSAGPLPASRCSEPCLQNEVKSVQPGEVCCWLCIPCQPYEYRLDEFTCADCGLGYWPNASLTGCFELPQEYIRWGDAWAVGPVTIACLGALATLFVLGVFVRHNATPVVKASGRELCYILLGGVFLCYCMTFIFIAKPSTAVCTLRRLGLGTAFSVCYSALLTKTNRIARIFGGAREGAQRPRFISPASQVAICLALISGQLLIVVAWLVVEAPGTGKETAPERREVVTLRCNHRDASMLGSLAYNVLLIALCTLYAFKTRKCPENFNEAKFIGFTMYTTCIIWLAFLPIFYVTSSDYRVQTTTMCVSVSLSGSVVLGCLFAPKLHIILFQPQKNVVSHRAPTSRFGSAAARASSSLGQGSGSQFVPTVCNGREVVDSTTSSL
# PROCEDURE TEXT: [35S]GTPγS binding assay (PAM)
# Assay type: biochemical
# DETAILS: in presence of glutamate at predetermined EC20; membranes from CHO cells transfected with human mGluR2

Examples with their reported GTPγS -hR2 PAM pEC50 follow.
- MOLECULE: "CC(C)Nc1ccc(-c2ccn3c(CC4CC4)nnc3c2Cl)cc1Cl [Co. No. 51]"
  GTPγS -hR2 PAM pEC50: 7.13
- MOLECULE: "Cc1ccc(CNc2ccc(-c3ccn4c(CC5CC5)nnc4c3C(F)(F)F)cc2F)cn1 [Co. No. 78]"
  GTPγS -hR2 PAM pEC50: 7.98
- MOLECULE: "FC(F)(F)c1c(-c2ccc(N3CCNCC3)c(Cl)c2)ccn2c(CC3CC3)nnc12 [Co. No. 73]"
  GTPγS -hR2 PAM pEC50: 6.59

Recall and state the measured GTPγS -hR2 PAM pEC50 for COc1ccc(CNc2ccc(-c3ccn4c(CC5CC5)nnc4c3Cl)cc2)cn1 [Co. No. 59] . 7.15

Quickly give me recorded GTPγS -hR2 PAM pEC50 for CCOCc1nnc2c(C)c(-c3ccc(Oc4ccc(C)nc4C)c(Cl)c3)ccn12 [Co. No. 65] 7.26

====

# melting point values compiled below
Reply numerically in °C, unit not repeated.

These solved cases illustrate the format of a correct answer.
- COMPOUND STRUCTURE STRING: "Cc1ccc(Oc2ccc(-c3ccn4c(CC5CC5)nnc4c3Cl)cc2F)c(C)n1"
  MEASUREMENT UNITS: "°C"
  RESULT: 207.2
- COMPOUND STRUCTURE STRING: "FC(F)(F)Cc1nnc2c(Cl)c(-c3ccc(OC4CCOCC4)c(Cl)c3)ccn12"
  MEASUREMENT UNITS: "°C"
  RESULT: 186.7
- COMPOUND STRUCTURE STRING: "CCOCc1nnc2c(C(F)(F)F)c(-c3ccc(Oc4ccnc(C)c4)c(F)c3)ccn12"
  MEASUREMENT UNITS: "°C"
  RESULT: 171.2

Hello, please tell me recorded melting point for this one: `FC(F)(F)c1c(-c2ccc(OC3CCOCC3)c(Cl)c2)ccn2c(CC3CC3)nnc12` 176.9

The measured values listed here are drawn from patent US8716480B2.
